- System: NCI-H23
- ASSAY NOTES: Inhibition of cancer cell proliferation (MTT)
- Type: cell-based, human
- ASSAY CONTEXT: 72 hrs
I'd appreciate it if you could supply GI50 values for the items below.
Kindly provide the numeric value in nM only, without the unit symbol.

Look up and state reported GI50 for Nc1nc(-c2nc(-c3ccnc(N)c3F)ccc2O)cc(C2CCNCC2)n1 [Example 84]
2030

Look up and state reported GI50 for CCc1cnc(N)nc1-c1nc(-c2ccnc(N)c2F)ccc1O [Example 102]
30

Look up and state reported GI50 for CCc1cnc(N)nc1-c1nc(-c2ccnc(N)c2F)ccc1O [Example 56]
90

Look up and state reported GI50 for CCN1CCC(c2nc(N)nc(-c3nc(-c4ccnc(N)c4F)ccc3O)c2C)CC1 [Example 94]
520

Look up and state reported GI50 for CC(C)c1cc(-c2nc(-c3ccnc(N)c3F)ccc2O)nc(N)n1 [Example 82]
90

Look up and state reported GI50 for CCN1CCC(c2cc(-c3nc(-c4ccnc(N)c4F)ccc3O)nc(N)n2)CC1 [Example 86]
50

Look up and state reported GI50 for CCCN1CCCC(c2cc(-c3nc(-c4ccnc(N)c4F)ccc3O)nc(N)n2)C1 (stereo not drawn) [Example 91]
50

Look up and state reported GI50 for CC(C)c1cc(-c2nc(-c3ccnc(N)c3F)ccc2O)nc(N)n1 [Example 81]
70

Look up and state reported GI50 for CCN1CCCC(c2cc(-c3nc(-c4ccnc(N)c4F)ccc3O)nc(N)n2)C1 (stereo not drawn) [Example 39]
1790

Look up and state reported GI50 for CN1CCC(c2cc(-c3nc(-c4ccnc(N)c4F)ccc3O)nc(N)n2)CC1 [Example 77]
30

Look up and state reported GI50 for CC(C)N1CCC(c2cc(-c3nc(-c4ccnc(N)c4F)ccc3O)nc(N)n2)CC1 [Example 88]
40

Look up and state reported GI50 for CN1CCCC(c2cc(-c3nc(-c4ccnc(N)c4F)ccc3O)nc(N)n2)C1 (stereo not drawn) [Example 89]
20

Look up and state reported GI50 for CCCN1CCCC(c2nc(N)nc(-c3nc(-c4ccnc(N)c4F)ccc3O)c2C)C1 (stereo not drawn) [Example 98]
2060

Look up and state reported GI50 for Cc1cnc(N)nc1-c1nc(-c2ccnc(N)c2F)ccc1O [Example 100]
70

Look up and state reported GI50 for CN1CCC(c2cc(-c3nc(-c4ccnc(N)c4F)ccc3O)nc(N)n2)CC1 [Example 34]
70

Look up and state reported GI50 for CCCc1cnc(N)nc1-c1nc(-c2ccnc(N)c2F)ccc1O [Example 103]
20

Look up and state reported GI50 for Cc1c(-c2nc(-c3ccnc(N)c3F)ccc2O)nc(N)nc1C1CCN(C)CC1 [Example 93]
230

Look up and state reported GI50 for CCc1c(-c2nc(-c3ccnc(N)c3F)ccc2O)nc(N)nc1C1CCN(C(C)C)CC1 [Example 105]
90

###

- System: A549
- ASSAY NOTES: Inhibition of cancer cell proliferation (MTT)
- Type: cell-based, human
- ASSAY CONTEXT: 72 hrs
I'd appreciate it if you could supply GI50 values for the items below.
Kindly provide the numeric value in nM only, without the unit symbol.

Provide GI50, system A549, entry CCCc1c(-c2nc(-c3ccnc(N)c3F)ccc2O)nc(N)nc1C1CCN(C(C)C)CC1 [Example 106]
820

Provide GI50, system A549, entry CN1CCC(c2cc(-c3nc(-c4ccnc(N)c4F)ccc3O)nc(N)n2)CC1 [Example 77]
10

Provide GI50, system A549, entry CC(C)c1cc(-c2nc(-c3ccnc(N)c3F)ccc2O)nc(N)n1 [Example 81]
140

Provide GI50, system A549, entry Cc1c(-c2nc(-c3ccnc(N)c3F)ccc2O)nc(N)nc1C1CCN(C)CC1 [Example 93]
100

Provide GI50, system A549, entry CCN1CCC(c2nc(N)nc(-c3nc(-c4ccnc(N)c4F)ccc3O)c2C)CC1
230

Provide GI50, system A549, entry CCCN1CCCC(c2cc(-c3nc(-c4ccnc(N)c4F)ccc3O)nc(N)n2)C1 (stereo not drawn) [Example 40]
10

Provide GI50, system A549, entry CCCN1CCC(c2cc(-c3nc(-c4ccnc(N)c4F)ccc3O)nc(N)n2)CC1
10

Provide GI50, system A549, entry CCN1CCCC(c2cc(-c3nc(-c4ccnc(N)c4F)ccc3O)nc(N)n2)C1 (stereo not drawn) [Example 39]
400

Provide GI50, system A549, entry CCc1c(-c2nc(-c3ccnc(N)c3F)ccc2O)nc(N)nc1C1CCN(C(C)C)CC1
60

Provide GI50, system A549, entry Cc1nc(N)nc(-c2nc(-c3ccnc(N)c3F)ccc2O)c1C
120

Provide GI50, system A549, entry CCCc1c(-c2nc(-c3ccnc(N)c3F)ccc2O)nc(N)nc1C1CCN(C(C)C)CC1 [Example 50]
150

Provide GI50, system A549, entry Cc1c(-c2nc(-c3ccnc(N)c3F)ccc2O)nc(N)nc1C1CCN(C)CC1 [Example 42]
380

Provide GI50, system A549, entry CN1CCCC(c2cc(-c3nc(-c4ccnc(N)c4F)ccc3O)nc(N)n2)C1 (stereo not drawn)
10

Provide GI50, system A549, entry Nc1nc(-c2nc(-c3ccnc(N)c3F)ccc2O)cc(C2CCNCC2)n1 [Example 83]
120

Provide GI50, system A549, entry CCCN1CCCC(c2cc(-c3nc(-c4ccnc(N)c4F)ccc3O)nc(N)n2)C1 (stereo not drawn) [Example 91]
30

Sourced from patent US20200190062A1
